targetEntity: Taq DNA polymerase (Thermus aquaticus, UniProt P19821 P19821:1-832)
Sequence (P19821 whole entry, one chain of several): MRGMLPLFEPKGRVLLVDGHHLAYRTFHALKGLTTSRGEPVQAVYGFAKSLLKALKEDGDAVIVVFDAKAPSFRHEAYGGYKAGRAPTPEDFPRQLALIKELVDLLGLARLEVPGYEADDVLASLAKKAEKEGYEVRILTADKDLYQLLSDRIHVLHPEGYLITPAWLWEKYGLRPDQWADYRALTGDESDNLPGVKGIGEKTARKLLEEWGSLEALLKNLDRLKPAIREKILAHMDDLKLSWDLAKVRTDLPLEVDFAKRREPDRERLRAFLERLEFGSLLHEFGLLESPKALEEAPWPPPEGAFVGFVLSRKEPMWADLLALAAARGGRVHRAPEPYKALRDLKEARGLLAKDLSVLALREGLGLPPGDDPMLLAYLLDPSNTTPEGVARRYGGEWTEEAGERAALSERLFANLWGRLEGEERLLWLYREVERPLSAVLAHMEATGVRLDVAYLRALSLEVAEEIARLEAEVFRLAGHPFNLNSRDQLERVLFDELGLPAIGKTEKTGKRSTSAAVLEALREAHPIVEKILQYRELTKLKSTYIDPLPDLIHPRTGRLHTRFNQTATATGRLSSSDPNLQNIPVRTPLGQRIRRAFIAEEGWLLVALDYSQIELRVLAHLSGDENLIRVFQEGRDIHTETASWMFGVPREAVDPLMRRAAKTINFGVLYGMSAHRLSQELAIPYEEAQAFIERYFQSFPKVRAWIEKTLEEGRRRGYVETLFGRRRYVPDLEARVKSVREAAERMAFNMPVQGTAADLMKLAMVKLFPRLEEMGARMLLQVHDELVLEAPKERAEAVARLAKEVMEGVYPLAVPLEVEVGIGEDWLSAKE
procedureText: FP filter; Tm 51C
conditionLabel: tags: rTaq, 94 kDa, Roche Molecular Systems; stem-loop
measuredProperty: pKd
Please express pKd as -log10 of the molar concentration.

Problem: # get_value(readout='pKd', item= AAGACCAGACAATGTACAGTATTGGCCTGA (ssDNA, [none]) [Trnc.A-30 (30-mer)] )
Solution: 9.22
